MEASUREMENT TARGET: Cytochrome P450 2D6 (Homo sapiens) (UniProt P10635)
Sequence (P10635 whole entry, looked up): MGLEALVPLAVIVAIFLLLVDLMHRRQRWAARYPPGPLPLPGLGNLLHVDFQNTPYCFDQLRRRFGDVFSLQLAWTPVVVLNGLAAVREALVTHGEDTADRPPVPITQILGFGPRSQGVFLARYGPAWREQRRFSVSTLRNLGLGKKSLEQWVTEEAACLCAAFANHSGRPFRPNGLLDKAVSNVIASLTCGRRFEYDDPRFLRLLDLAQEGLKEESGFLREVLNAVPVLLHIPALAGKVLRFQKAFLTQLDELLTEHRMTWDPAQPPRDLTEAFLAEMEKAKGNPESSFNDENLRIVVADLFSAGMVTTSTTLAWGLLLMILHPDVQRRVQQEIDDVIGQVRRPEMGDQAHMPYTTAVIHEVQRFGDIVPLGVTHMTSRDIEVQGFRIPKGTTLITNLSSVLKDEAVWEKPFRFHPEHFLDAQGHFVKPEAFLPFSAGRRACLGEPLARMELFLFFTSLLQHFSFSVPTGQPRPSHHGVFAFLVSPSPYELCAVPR
METHOD: Cytochrome panel assay with activity outcomes
REPORTED CONDITIONS: recombinant CYP, pro-luciferin dealkylation, luminescence, p450-cyp2d6; series mostly up to 57.1 µM
In all, about 16,000 compounds went through this assay and about 2,600 (16%) were called active. Another 20% or so got no clear call; they are omitted. Not all results are given here.
ENDPOINT: AC50

| MOLECULE | AC50 |
| --- | --- |
| COC(=O)C1=C(NC(=O)c2cccc(OC)c2)CCS1 | inactive |
| COC(=O)c1ccc(NC(=O)Cn2nc(-c3ccncc3)nc2SCC(=O)Nc2nccs2)cc1 | 10 µM (active) |
| CCC(=O)N1CCN(C(=O)c2ccccc2)CC1 | inactive |
| COc1ccccc1-c1nc(N(C)Cc2ccco2)c2ccccc2n1 | 1 µM (active) |

input: Answer with the recorded AC50 for the molecule listed here: "Cc1cccc(CNc2nc(-c3cccnc3)nc3ccccc23)c1"
output: 25.1 µM (active)

input: Answer with the recorded AC50 for the molecule listed here: CC(=O)[C@@H]1[C@@H]2C(=O)N(C3CCCCC3)C(=O)[C@@H]2C2c3ccccc3C=CN21 (stereo partly drawn)
output: inactive
